# STUDY_SYSTEM: recombinant guanylate cyclase reporter cell line (Rattus norvegicus, UniProt P19686+P20595)
# Construct: expressed in transfected cells
# TEST_DETAILS: B-2. Action on recombinant guanylate cyclase reporter cell line
# Format: cell-based
# TEST_CONTEXT: MEC = minimal effective concentration; in some cases mean values from individual determinations
MEASUREMENT_LABEL: MEC (µM)

Worked examples, 2 compounds total:
# COMPOUND, MEASUREMENT_LABEL, ENDPOINT_VALUE
records = [
    ("Cc1nc2c(OCc3c(F)cccc3F)cc(Cl)cn2c1C(=O)NCCN1CCN(C)CC1", "MEC", 1.00),
    ("Cc1nc2c(OCc3c(F)cccc3F)cccn2c1C(=O)NC(C)[C@@H](C)N (stereo partly shown) [Example 121]", "MEC", 0.30),
]

(1) Cc1nc2c(OCc3c(F)cccc3F)cccn2c1C(=O)NCCN1CCN(C)CC1
(2) Cc1nc2c(OCc3c(F)cccc3F)cc(Cl)cn2c1C(=O)NCC(N)COC(C)C (racemic)
# min-compare on MEC between 1 and 2 Returns: label corresponding to the selected item. 2

* * *

# STUDY_SYSTEM: recombinant guanylate cyclase reporter cell line (Rattus norvegicus, UniProt P19686+P20595)
# Construct: expressed in transfected cells
# TEST_DETAILS: B-2. Action on recombinant guanylate cyclase reporter cell line
# Format: cell-based
# TEST_CONTEXT: MEC = minimal effective concentration; in some cases mean values from individual determinations
MEASUREMENT_LABEL: MEC (µM)

(1) Cc1nc2c(OCc3c(F)cccc3F)cc(Cl)cn2c1C(=O)NCC(C)N (single isomer, unassigned; enantiomer a) [Example 29]
(2) Cc1nc2c(OCc3c(F)cccc3F)cccn2c1C(=O)NC(CN)c1ccc(F)c(F)c1 (single isomer, unassigned; enantiomer a) [Example 12]
Response body: label of entry with the larger MEC; valid values 1 , 2 . Returns: label corresponding to the selected item. 2

* * *

# STUDY_SYSTEM: recombinant guanylate cyclase reporter cell line (Rattus norvegicus, UniProt P19686+P20595)
# Construct: expressed in transfected cells
# TEST_DETAILS: B-2. Action on recombinant guanylate cyclase reporter cell line
# Assay type: cell-based
# TEST_CONTEXT: MEC = minimal effective concentration; in some cases mean values from individual determinations
MEASUREMENT_LABEL: MEC (µM)

Worked examples, 4 molecules total:
# MOLECULE, MEASUREMENT_LABEL, ENDPOINT_VALUE
rows = [
    ("Cc1nc2c(OCc3c(F)cccc3F)cccn2c1C(=O)NC1CNc2ccccc21 (single isomer, unassigned; ent-8) [Example 47]", "MEC", 0.30),
    ("Cc1nc2c(OCc3c(F)cccc3F)cccn2c1C(=O)NC(CN)CC(F)(F)F (single isomer, unassigned; enantiomer b) [Example 3]", "MEC", 0.30),
    ("Cc1nc2c(OCc3c(F)cccc3F)cccn2c1C(=O)NCC(N)C(F)(F)F (single isomer, unassigned) [Example 208]", "MEC", 0.30),
    ("COc1cccc(C(CN)NC(=O)c2c(C)nc3c(OCc4c(F)cccc4F)cc(C)cn23)c1 (racemic)", "MEC", 0.30),
]

(I) Cc1cc(OCc2c(F)ccc(C3CC3)c2F)c2nc(C)c(C(=O)NCC(C)(N)CF)n2c1 (stereo not shown)
(II) CCCC(C)(N)CNC(=O)c1c(C)nc2c(OCc3c(F)cccc3F)cc(Br)cn12 (stereo not shown)
Response body: label of entry with the larger MEC; valid values I , II . Returns: label corresponding to the selected item. I

* * *

# STUDY_SYSTEM: recombinant guanylate cyclase reporter cell line (Rattus norvegicus, UniProt P19686+P20595)
# Construct: expressed in transfected cells
# Sequence (P20595 1-619): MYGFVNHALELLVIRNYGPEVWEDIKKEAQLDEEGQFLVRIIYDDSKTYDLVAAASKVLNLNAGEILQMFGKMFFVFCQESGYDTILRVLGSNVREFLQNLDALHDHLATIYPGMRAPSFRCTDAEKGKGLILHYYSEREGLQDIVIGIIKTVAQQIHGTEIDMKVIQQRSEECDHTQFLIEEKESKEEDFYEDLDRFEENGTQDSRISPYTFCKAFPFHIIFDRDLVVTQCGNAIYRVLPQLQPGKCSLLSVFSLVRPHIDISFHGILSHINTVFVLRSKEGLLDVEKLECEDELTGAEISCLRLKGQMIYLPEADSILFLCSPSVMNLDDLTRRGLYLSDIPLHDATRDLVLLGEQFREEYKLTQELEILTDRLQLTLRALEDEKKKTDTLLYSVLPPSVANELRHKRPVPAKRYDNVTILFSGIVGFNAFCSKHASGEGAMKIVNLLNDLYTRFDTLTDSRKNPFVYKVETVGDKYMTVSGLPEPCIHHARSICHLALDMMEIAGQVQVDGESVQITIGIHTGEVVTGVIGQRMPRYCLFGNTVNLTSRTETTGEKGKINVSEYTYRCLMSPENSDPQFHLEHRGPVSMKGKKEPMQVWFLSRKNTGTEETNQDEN
# Sequence (P19686 1-690): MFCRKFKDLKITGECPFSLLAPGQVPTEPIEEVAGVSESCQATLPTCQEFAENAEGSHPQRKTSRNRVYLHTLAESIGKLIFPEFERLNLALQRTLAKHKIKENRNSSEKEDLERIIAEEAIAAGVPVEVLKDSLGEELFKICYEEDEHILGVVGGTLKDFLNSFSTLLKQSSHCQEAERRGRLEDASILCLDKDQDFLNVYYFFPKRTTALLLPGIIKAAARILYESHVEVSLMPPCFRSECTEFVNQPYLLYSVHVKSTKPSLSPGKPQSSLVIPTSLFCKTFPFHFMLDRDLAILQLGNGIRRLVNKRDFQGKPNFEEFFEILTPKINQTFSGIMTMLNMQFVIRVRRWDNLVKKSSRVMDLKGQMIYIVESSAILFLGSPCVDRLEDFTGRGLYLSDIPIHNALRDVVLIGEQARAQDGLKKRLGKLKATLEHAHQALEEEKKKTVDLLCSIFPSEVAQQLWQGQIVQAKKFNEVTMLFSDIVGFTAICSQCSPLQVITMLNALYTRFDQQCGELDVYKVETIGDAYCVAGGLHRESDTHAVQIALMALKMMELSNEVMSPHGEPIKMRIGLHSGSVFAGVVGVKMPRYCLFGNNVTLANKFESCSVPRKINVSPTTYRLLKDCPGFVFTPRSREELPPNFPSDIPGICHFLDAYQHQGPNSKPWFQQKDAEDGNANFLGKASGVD
# TEST_DETAILS: B-2. Action on recombinant guanylate cyclase reporter cell line
# Format: cell-based
# TEST_CONTEXT: MEC = minimal effective concentration; in some cases mean values from individual determinations
MEASUREMENT_LABEL: MEC (µM)

Worked examples, 3 molecules total:
# MOLECULE, MEC, µM
measured = [
    ("Cc1nc2c(OCc3c(F)cccc3F)cc(Cl)cn2c1C(=O)NC1CNCc2ccccc21 (single isomer, unassigned; ent-6) [Example 108]", 1.00),
    ("CCCC(C)(N)CNC(=O)c1c(C)nc2c(OCc3c(F)ccc(C4CC4)c3F)cc(C)cn12 (stereo not drawn)", 3.00),
    ("Cc1cc(OCc2c(F)cccc2F)c2nc(C)c(C(=O)NCC(C)N3CCOCC3)n2c1 (single isomer, unassigned; ent-8) [Example 186]", 0.30),
]

(a) Cc1nc2c(OCc3c(F)cccc3F)cccn2c1C(=O)NCC(C(C)C)N(C)C (single isomer, unassigned; ent-8) [Example 189]
(b) Cc1cc(OCc2c(F)cccc2F)c2nc(C)c(C(=O)NC[C@H]3CCCCN3)n2c1
(c) Cc1nc2c(OCc3c(F)cccc3F)cc(C(F)F)cn2c1C(=O)NCC(C)(N)CF (single isomer, unassigned; enantiomer a) [Example 291]
Order the items by recorded MEC; the first position goes to the largest value. Provide the ranking by listing each label in its place in the requested order. a, c, b

* * *

# STUDY_SYSTEM: recombinant guanylate cyclase reporter cell line (Rattus norvegicus, UniProt P19686+P20595)
# Construct: expressed in transfected cells
# TEST_DETAILS: B-2. Action on recombinant guanylate cyclase reporter cell line
# Type: cell-based
# TEST_CONTEXT: MEC = minimal effective concentration; in some cases mean values from individual determinations
MEASUREMENT_LABEL: MEC (µM)

Worked examples, 5 compounds total:
# COMPOUND, MEASUREMENT_LABEL, UNIT_NAME, ENDPOINT_VALUE
rows = [
    ("Cc1cc(OCc2c(F)cccc2F)c2nc(C)c(C(=O)NCC(N)C(C)C)n2c1 (single isomer, unassigned) [Example 223]", "MEC", "µM", 0.30),
    ("Cc1cc(OCc2c(F)cccc2F)c2nc(C)c(C(=O)NCC3CS(=O)(=O)CCN3)n2c1 (racemic) [Example 414]", "MEC", "µM", 0.30),
    ("Cc1nc2c(OCC3CCCCC3)cccn2c1C(=O)NC(CN)c1ccc(F)cc1F (centres unmarked) [Example 45]", "MEC", "µM", 1.00),
    ("Cc1cc(OCc2c(F)cccc2F)c2nc(C)c(C(=O)NCC(C)(C)NCCO)n2c1 [Example 349]", "MEC", "µM", 1.00),
    ("Cc1nc2c(OCc3c(F)cccc3F)cccn2c1C(=O)NC12CNCCC1C2 (single isomer, unassigned) [Example 185]", "MEC", "µM", 1.00),
]

(A) CCCC(C)(N)CNC(=O)c1c(C)nc2c(OCc3c(F)cccc3F)cc(CC)cn12 (centres unmarked) [Example 323]
(B) Cc1nc2c(OCc3c(F)cccc3F)cccn2c1C(=O)NC1CCCN(C)C1 (racemic) [Example 84]
(C) Cc1cc(OCc2c(F)cccc2F)c2nc(C)c(C(=O)NCC(N)CCS(C)(=O)=O)n2c1 (racemic) [Example 413]
Order the items by recorded MEC; the first position goes to the largest value. Provide the ranking by listing each label in its place in the requested order. C, B, A
